tested on: BDF1 mice, P388 leukemia ip, median survival T/C; test: NCI In Vivo Anticancer Drug Screen. Data for tumor model P388 Leukemia (intraperitoneal) in B6D2F1 (BDF1) mice; details: endpoint: median survival time; dose: 400.0 mg/kg/injection; schedule: Q04DX003 (ip); vehicle: saline with Tween-80; higher = longer survival
Inconclusive results and toxic doses are left out.
observable: T/C

Record summary for O=C(/C=N/O)Nc1cc(Cl)ccc1Cl : reported T/C = 100 % of control

response.value for Cc1ccc2nc(-c3ccccc3N)[nH]c2c1 (field: T/C) = 90 % of control

So for CCCCCCCCCC(=O)CCCC , the logged T/C turned out to be 108 % of control

The compound listed as O=S(=O)(c1ccccc1)N1CCOC1=S shows T/C equal to 95 % of control

Reported T/C of C[C@H]1[C@H](O)[C@H]2[C@@H](CCC3=CC(=O)CC[C@@]32C)[C@@H]2CC[C@H](O)[C@@]12C : 91 % of control

Item: Cn1c2ccccc2c(=O)c2ccc(Cl)cc21 | T/C: 100 % of control

Measured T/C of Clc1ccc(/C=N\N=C\c2ccc(Cl)c(Cl)c2)cc1Cl : 111 % of control

Please fill in: T/C reported for Cc1ccc(S(=O)(=O)N(C)c2cc(Cl)c(C(N)=O)c(Cl)c2)cc1 = 106 % of control

Please fill in: T/C reported for O=C(/C=C/c1ccc(Br)cc1)c1ccc(Cl)cc1 = 90 % of control
